conditions: [M+Na]+; instrument: DT; single field
I'd be grateful if you could share measured collision cross section (N2) for these entries.
# output: bare number, implied unit Å²

Tell me the measured collision cross section (N2) of CCCCC/C=C\C/C=C\C/C=C\C/C=C\CCCC(=O)OC[C@@H](COC(=O)CCCCCCCCCCCCCC)OC(=O)CCCCCCCCCCCCCCCCC [TG(53:4)] , please.
319.39

Tell me the measured collision cross section (N2) of CCCCCCCCCCCCCCCCCCC(=O)OC[C@@H](COC(=O)CCCCCCCCCCC)OC(=O)CCCCCCCCCCCCCCCCCC [TG(50:0)] , please.
316.28

Tell me the measured collision cross section (N2) of CC/C=C\C/C=C\C/C=C\C/C=C\CCCCC(=O)OC[C@@H](COC(=O)CCCCCCCCCCCCCCCCC)OC(=O)CCCC/C=C\C/C=C\C/C=C\CCCCC [TG(54:7)] , please.
316.19

Tell me the measured collision cross section (N2) of CCCCCCCC/C=C\CCCCCCCCCCCC(=O)OC[C@H](COP(=O)([O-])OCC[N+](C)(C)C)OC(=O)CCCCCCCCCCCCC [PC(36:1)] , please.
294

----------
conditions: [M+Na-2H]-; instrument: DT; single field, calibrated with ESI Low Concentration Tuning Mix (Agilent)
I'd be grateful if you could share measured collision cross section (N2) for these entries.
Write the numeric value and append its unit.

Tell me the measured collision cross section (N2) of Nc1nc(=O)c2ncn([C@H]3C[C@H](O)[C@@H](COP(=O)(O)OP(=O)(O)OP(=O)(O)O)O3)c2[nH]1 , please.
182.7 Å²

Tell me the measured collision cross section (N2) of O=C(O)[C@@H](O)[C@@H](O)[C@H](O)[C@@H](O)C(=O)O [SACCHARATE] , please.
137.3 Å²

Tell me the measured collision cross section (N2) of Nc1ncnc2c1ncn2[C@@H]1O[C@H](CSCC[C@H](N)C(=O)O)[C@@H](O)[C@H]1O , please.
180.3 Å²

Tell me the measured collision cross section (N2) of CC(C)=CCC/C(C)=C/COP(=O)(O)OP(=O)(O)O , please.
173.8 Å²

----------
I'd be grateful if you could share measured collision cross section (N2) for these entries.
conditions: [M+H]+; instrument: TW; calibrated with polyalanine and drug standards
Write the numeric value and append its unit.

Tell me the measured collision cross section (N2) of Cc1cc(NS(=O)(=O)c2ccc(N)cc2)no1 , please.
151.4 Å²

Tell me the measured collision cross section (N2) of CC1(C)CC2C1CC[C@]1(C)CCC3C(C(=O)O)CC(=O)O[C@@]32C1 (stereo partly drawn) [3-HYDROXY-4-(SUCCIN-2-YL)-CARYOLANE delta-LACTONE] , please.
174.9 Å²

Tell me the measured collision cross section (N2) of CC(C)[C@@H]1NC(=O)[C@H](C)OC(=O)[C@@H](C(C)C)NC(=O)[C@@H](C(C)C)OC(=O)[C@H](C(C)C)NC(=O)[C@H](C)OC(=O)[C@@H](C(C)C)NC(=O)[C@@H](C(C)C)OC(=O)[C@H](C(C)C)NC(=O)[C@H](C)OC(=O)[C@@H](C(C)C)NC(=O)[C@@H](C(C)C)OC1=O , please.
327.4 Å²
